Below, each entry is listed alongside its reported kon.
TARGET_SYSTEM: T1, recombinant human FasR (Homo sapiens, UniProt P25445)
T1 construct: Fas receptor (FasR, CD95), human, recombinant; The FasR of the BLI and SPR experiments; Details are in Supplementary Protocols 8-10; also called recombinant FasR
T1 sequence (P25445 26-335): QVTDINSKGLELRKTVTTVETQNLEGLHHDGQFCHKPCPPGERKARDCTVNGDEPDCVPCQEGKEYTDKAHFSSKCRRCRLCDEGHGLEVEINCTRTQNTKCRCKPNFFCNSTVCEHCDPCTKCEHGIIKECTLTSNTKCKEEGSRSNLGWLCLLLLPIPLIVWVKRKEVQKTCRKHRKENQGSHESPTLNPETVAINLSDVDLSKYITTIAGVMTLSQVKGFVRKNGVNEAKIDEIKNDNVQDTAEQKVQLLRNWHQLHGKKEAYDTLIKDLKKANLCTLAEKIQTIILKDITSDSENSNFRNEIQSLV
ASSAY_TEXT: BLI; Octet Red384; recombinant human FasR; 1:1 Langmuir model; at least in duplicate; who was immobilised is not told (Supplementary Protocols 8-10)
CONDITION_INFO: both partners purified
Please make sure the unit comes right after the number.

[
  {
    "BINDER": "A09a scFv (scFv, V domains shown, numbers count on: Kabat numbering; scFv linker, as in m6; Selected by BeSD, round IV) VH: QLQLQEPGPGLTKPSETLSLTCTVPGASISADSYYGVWVRQSPGKGLEWVGSIAYRGNSNSGSTYYNPSLKSRATVSVDTSKNQVSLRLTSVTAADTALYYCARRQLLDDGTGYQWAAFDVWGQGTMVTVSS VL: QSVLTQPPSVSEAPRQTVTISCSGNSFNIGRYPVNWYQQLPGKAPKLLIYHNNLRFSGVSDRFSGSKSGTSASLAIRDLLSEDEADYYCSTWDDTLKGWVFGGGTKVTVL",
    "kon": "147000 M⁻¹ s⁻¹"
  }
]

Switching to the query record.
Exercise: What does the data say about its kon? Entry: A03a scFv (scFv, V domains shown, numbers count on: Kabat numbering; scFv linker, as in m6; Selected by BeSD, round IV) VH: QLQLQESGPGLVKPSETLSLTCTVPGASISANSYYGVWVRQSPGRGLEWVGSIAYRGNSNSGSTYYNPSLKSRATVSVDTSKNQVSLRLTSVTAADTALYYCARRRLLDDGTGYQWAAFDNWDQGTMVTVSS VL: QSVLTQSPSVSEAPRQTVTISCSGNSFNTGRYPVNWYQQLPGKAPKLLIYSNNLRLSGVSDRFSGSKSGTSASLAIRDLLSEDEADYYCSTWDDTLEGWVFGGGTKVTVL
Solution: 240000 M⁻¹ s⁻¹
